# credit: ChEMBL document CHEMBL1914368

TARGET OF ASSAY: Proto-oncogene tyrosine-protein kinase Src (Homo sapiens, UniProt P12931)
Sequence (P12931 2-536 limits assumed): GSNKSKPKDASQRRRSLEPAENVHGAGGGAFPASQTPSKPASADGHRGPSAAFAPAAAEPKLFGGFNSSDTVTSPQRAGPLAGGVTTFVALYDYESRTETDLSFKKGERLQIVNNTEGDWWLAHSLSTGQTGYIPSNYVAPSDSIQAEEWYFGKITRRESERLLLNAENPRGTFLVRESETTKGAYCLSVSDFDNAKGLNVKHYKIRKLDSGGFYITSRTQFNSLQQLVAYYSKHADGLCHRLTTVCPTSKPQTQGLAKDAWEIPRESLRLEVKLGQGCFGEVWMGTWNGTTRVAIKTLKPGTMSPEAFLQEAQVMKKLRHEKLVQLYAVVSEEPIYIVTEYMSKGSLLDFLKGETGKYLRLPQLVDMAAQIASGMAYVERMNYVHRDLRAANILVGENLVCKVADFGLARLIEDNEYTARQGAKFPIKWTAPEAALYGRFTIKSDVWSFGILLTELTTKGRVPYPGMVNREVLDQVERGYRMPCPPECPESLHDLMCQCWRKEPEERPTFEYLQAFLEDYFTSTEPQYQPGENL
METHOD DESCRIPTION: Inhibition cSRC expressed in Sf9 cells after 60 mins by TR-FRET Assay
RESULT TYPE: IC50 (nM)
Response body: numeric value in nM, unit text excluded.

# assay system Proto-oncogene tyrosine-protein kinase Src (Homo sapiens, UniProt P12931): give IC50 of Cc1ccc(F)cc1Nc1nc2cc(Cl)c(N(C)C(=O)/C=C/CN(C)C)cc2n2cncc12
1620

* * *

TARGET OF ASSAY: Tyrosine-protein kinase BTK (Homo sapiens)
Sequence (Q06187 whole entry): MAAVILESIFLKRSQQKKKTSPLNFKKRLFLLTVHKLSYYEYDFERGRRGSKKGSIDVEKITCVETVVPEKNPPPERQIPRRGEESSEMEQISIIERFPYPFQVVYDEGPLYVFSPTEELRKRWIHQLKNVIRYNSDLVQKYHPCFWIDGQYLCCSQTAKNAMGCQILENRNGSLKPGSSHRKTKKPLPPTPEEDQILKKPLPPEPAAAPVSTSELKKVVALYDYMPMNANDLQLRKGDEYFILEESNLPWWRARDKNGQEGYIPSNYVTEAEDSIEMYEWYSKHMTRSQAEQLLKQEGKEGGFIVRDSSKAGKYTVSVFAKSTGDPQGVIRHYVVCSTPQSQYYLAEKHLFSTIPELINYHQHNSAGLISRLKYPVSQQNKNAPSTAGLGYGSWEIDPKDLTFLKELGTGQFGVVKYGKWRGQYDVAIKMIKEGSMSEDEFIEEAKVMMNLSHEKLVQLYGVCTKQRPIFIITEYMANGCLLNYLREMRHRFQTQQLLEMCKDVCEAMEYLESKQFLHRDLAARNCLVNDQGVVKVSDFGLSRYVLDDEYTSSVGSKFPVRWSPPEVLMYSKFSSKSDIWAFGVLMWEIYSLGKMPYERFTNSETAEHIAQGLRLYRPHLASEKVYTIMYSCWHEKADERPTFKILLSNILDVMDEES
METHOD DESCRIPTION: Inhibition of BTK relative to control
RESULT TYPE: IC50

Determine its reported IC50: Cc1ccccc1Nc1nc2cc(F)c(N(C)C(=O)/C=C/CN(C)C)cc2n2cncc12
3.31 nM

* * *

TARGET OF ASSAY: Tyrosine-protein kinase BTK (Homo sapiens)
METHOD DESCRIPTION: Inhibition of human full-length BTK expressed in Sf9 cells using FAM-Srctide peptide as substrate preincubated for 60 mins measured after 60 mins by TR-FRET Assay
RESULT TYPE: pIC50
# pIC50: negative log10 of molar concentration; output just the value

Could you please provide reported pIC50 for Cc1ccc(F)cc1Nc1nc2cc(Cl)c(N(C)C(=O)/C=C/CN(C)C)cc2n2cncc12 ? Thanks!
8.59

// fetch pIC50 given entry Cc1ccccc1Nc1nc2cc(F)c(N(C)C(=O)/C=C/CN(C)C)cc2n2cncc12
9.15

* * *

Exercise: state measured bioavailability for each of the compounds provided.
METHOD DESCRIPTION: Oral bioavailability in mouse at 10 mg/kg
Assay type: ADME, organism-based
RUN PARAMETERS: in vivo
Write the number in % without appending the unit.

Tell me measured bioavailability for Cc1ccccc1Nc1nc2cc(F)c(N(C)C(=O)/C=C/CN(C)C)cc2n2cncc12 please.
34

Return bioavailability for the following compound: Cc1ccc(F)cc1Nc1nc2cc(Cl)c(N(C)C(=O)/C=C/CN(C)C)cc2n2cncc12
58

* * *

TARGET OF ASSAY: UniProt P07948
Sequence (P07948 whole entry): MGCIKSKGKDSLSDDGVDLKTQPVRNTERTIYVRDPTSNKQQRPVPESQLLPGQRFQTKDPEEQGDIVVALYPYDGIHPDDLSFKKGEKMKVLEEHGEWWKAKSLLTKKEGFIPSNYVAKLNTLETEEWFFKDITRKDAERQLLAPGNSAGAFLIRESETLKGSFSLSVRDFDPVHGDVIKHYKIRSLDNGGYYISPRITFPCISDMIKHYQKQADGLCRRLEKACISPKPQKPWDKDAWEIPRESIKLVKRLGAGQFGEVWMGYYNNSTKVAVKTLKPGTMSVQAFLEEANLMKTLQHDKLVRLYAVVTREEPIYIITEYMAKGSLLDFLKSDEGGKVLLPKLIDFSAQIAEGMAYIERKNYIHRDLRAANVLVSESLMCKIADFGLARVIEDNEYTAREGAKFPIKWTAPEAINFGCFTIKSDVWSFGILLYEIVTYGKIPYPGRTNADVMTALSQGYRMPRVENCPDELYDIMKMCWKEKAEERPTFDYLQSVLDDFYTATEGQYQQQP
METHOD DESCRIPTION: Inhibition of LYN-A expressed in Sf9 cells after 60 mins by TR-FRET Assay
pIC50: −log10 of the molar value.
Please enter fulfilled where pIC50 is greater than or equal to 6, and not fulfilled where it is lower.

Does Cc1c(F)cccc1Nc1nc2ccc(N(C)C(=O)/C=C/CN(C)C)cc2n2cncc12 have a reported pIC50 of at least 6?
fulfilled

Has Cc1ccccc1Nc1nc2ccc(N(C)C(=O)/C=C/CN(C)C)cc2n2cncc12 a recorded pIC50 greater than or equal to 6?
fulfilled

Answer whether pIC50 of Cc1cc(F)ccc1Nc1nc2cc(Cl)c(N(C)C(=O)/C=C/CN(C)C)cc2n2cncc12 is greater than or equal to 6.
not fulfilled

Form field: pIC50 at least 6? Entry: Cc1ccc(F)cc1Nc1nc2cc(F)c(N(C)C(=O)/C=C/CN(C)C)cc2n2cncc12
not fulfilled

Does the molecule Cc1cccc(O)c1Nc1nc2ccc(N(C)C(=O)/C=C/CN(C)C)cc2n2cncc12 have recorded pIC50 that is 6 or more?
fulfilled

Check if pIC50 >= 6 (inclusive). Item: Cc1c(O)cccc1Nc1nc2ccc(N(C)C(=O)/C=C/CN(C)C)cc2n2cncc12
fulfilled

Test whether the molecule CNc1cc2c(cc1F)nc(Oc1ccccc1C)c1cncn12 records pIC50 of 6 or higher.
fulfilled

Given COc1cc2nc(Nc3ccccc3C)c3cncn3c2cc1N(CC1CC1)C(=O)/C=C/CN(C)C , state whether its pIC50 is at least 6.
not fulfilled

Is it the case that CN(C)C/C=C/C(=O)N(C)c1cc2c(cc1Cl)nc(Nc1ccccc1Cl)c1cncn12 has pIC50 reaching or exceeding 6?
not fulfilled
